Reference for the values: ChEMBL document CHEMBL5226310

- System Name: Acid-sensing ion channel 1 (Mus musculus) (UniProt Q6NXK8)
- Sequence (Q6NXK8 whole entry): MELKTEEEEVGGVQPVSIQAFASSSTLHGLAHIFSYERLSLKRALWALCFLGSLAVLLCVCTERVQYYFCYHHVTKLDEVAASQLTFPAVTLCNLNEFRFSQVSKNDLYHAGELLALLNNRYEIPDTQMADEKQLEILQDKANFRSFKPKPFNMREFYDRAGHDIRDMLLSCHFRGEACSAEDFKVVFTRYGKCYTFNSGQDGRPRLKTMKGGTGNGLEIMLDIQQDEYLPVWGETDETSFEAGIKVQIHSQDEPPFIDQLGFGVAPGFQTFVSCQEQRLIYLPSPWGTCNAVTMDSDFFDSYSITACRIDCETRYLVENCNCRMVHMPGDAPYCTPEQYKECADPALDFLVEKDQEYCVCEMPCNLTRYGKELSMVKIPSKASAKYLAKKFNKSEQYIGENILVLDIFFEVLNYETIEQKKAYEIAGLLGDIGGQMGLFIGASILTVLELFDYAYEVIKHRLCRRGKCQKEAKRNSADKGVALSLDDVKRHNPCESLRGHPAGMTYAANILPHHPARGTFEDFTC
- Assay Protocol: Inhibition of mouse ASIC1a expressed in genetically engineered-CHO-K1 cells at 10 uM preincubated for 10 mins at pH 7.4 followed by cell stimulation with proton injection at pH 6.5 by electro-chromic fluorescence voltage sensor-based assay relative to control
Measurement Label: inhibition (%)

These solved cases illustrate the format of a correct answer.
[
  {
    "Test Smiles": "N=C(N)N/N=C/c1ccc(-c2cc(-c3ccc(F)cc3)on2)cc1",
    "Observed": 24.2
  },
  {
    "Test Smiles": "Br.Br.C(=N/NC1=NCCN1)/c1ccc(-c2cc(-c3ccc(/C=N/NC4=NCCN4)cc3)[nH]n2)cc1",
    "Observed": -3.26
  },
  {
    "Test Smiles": "Cl.N=C(N)N/N=C\\c1ccc(-c2cccc(-c3ccc(/C=N/NC(=N)N)cc3)c2)cc1",
    "Observed": 53
  },
  {
    "Test Smiles": "Cn1nc(-c2ccc(/C=N/NC(=N)N)cc2)cc1-c1ccc(/C=N/NC(=N)N)cc1",
    "Observed": 33.1
  }
]

P: Cn1nc(-c2ccc(F)cc2)cc1-c1ccc(/C=N/NC(=N)N)cc1
Q: N=C(N)N/N=C/c1ccc(-c2cc(-c3ccc(Br)cc3)n[nH]2)cc1
**Query** Given the listed records, identify the one among P and Q with higher inhibition. Which one? Tell me its label.
**Result** Q
(Q: 24.6%, P: 16.8%)

I: COc1ccc(Cn2nc(-c3ccc(/C=N/NC(=N)N)cc3)cc2-c2ccc(/C=N/NC(=N)N)cc2)cc1
II: N=C(N)N/N=C/c1ccc(-c2cc(-c3ccc(F)cc3)n[nH]2)cc1
III: Cl.Cl.N=C(N)N/N=C\c1ccc(-c2cc(-c3ccc(/C=N\NC(=N)N)cc3)[nH]n2)cc1
**Query** Arrange by inhibition, high to low. Answer by naming the labels in the order asked.
**Result** I, II, III

* * *

- System Name: Acid-sensing ion channel 1 (Homo sapiens)
- Sequence (P78348 whole entry): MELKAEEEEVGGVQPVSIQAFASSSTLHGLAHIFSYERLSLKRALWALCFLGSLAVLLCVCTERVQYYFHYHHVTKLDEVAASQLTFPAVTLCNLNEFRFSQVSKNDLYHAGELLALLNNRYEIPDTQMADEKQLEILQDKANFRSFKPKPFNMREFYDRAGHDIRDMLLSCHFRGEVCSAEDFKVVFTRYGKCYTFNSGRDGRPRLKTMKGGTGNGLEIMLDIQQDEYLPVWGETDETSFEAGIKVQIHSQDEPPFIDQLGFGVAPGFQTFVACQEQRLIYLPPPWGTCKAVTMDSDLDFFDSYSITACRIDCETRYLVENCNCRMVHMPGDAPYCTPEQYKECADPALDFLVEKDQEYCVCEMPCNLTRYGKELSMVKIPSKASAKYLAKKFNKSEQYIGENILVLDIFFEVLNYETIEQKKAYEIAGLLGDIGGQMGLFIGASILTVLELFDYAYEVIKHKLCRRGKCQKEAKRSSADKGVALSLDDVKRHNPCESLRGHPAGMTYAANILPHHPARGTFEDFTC
- Assay Protocol: Inhibition of human ASIC1a in HEK293 cells assessed as inward proton-gated current at pH 6.0 incubated with compound followed by PcTx1 addition by patch-clamp electrophysiology
Measurement Label: IC50 (µM)

[
  {
    "Test Smiles": "CC(C)(C)c1ccc(-c2cccc(-c3ccc(/C=N/NC(=N)N)cc3)c2)cc1",
    "Measurement Label": "IC50",
    "Readout Units": "µM",
    "Observed": 2.95
  },
  {
    "Test Smiles": "COc1ccc(Cn2nc(-c3ccc(F)cc3)cc2-c2ccc(/C=N/NC(=N)N)cc2)cc1",
    "Measurement Label": "IC50",
    "Readout Units": "µM",
    "Observed": 1.99
  },
  {
    "Test Smiles": "N=C(N)N/N=C/c1ccc(-c2cc(-c3ccc(F)cc3)n[nH]2)cc1",
    "Measurement Label": "IC50",
    "Readout Units": "µM",
    "Observed": 2.59
  }
]
